Consider the following compounds and their measured composite z-score readings.
- ASSAY_INFO: probe aInhba binding on compound microarray – biochemical, small-molecule microarray, 635/667 nm fluorescence, primary screen (AID 1148);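 also: score merges 667nm spot fluorescence with signal-to-noise for antibody binding to printed compounds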
- EXPERIMENTAL_CONDITIONS: higher = more signal
QUANTITY_MEASURED: composite z-score

1. [N-]=[N+]=NCc1ccccc1C[C@]1(C(=O)NCCN2CCOCC2)COC(c2ccc(OCCCO)cc2)=N1: 0.161
2. C=C[C@@H](O)[C@H]1CC(c2ccccc2)=NO1: -0.183
3. Cc1cc(C)c(C(O)C2C=CC3C(=O)N(c4ccccc4)C(=O)C3N2Nc2ccc([N+](=O)[O-])cc2)c(C)c1 (stereo not given): 0.548
4. [N-]=[N+]=NCc1ccccc1C[C@]1(C(=O)NCCN2CCOCC2)N=C(c2ccc(OCCCO)cc2)O[C@H]1c1ccccc1: 0.364
5. O=[N+]([O-])c1ccc(C[n+]2ccc(-c3ccc(CO)cc3)cc2)o1: 0.0816
